- measurementNotes: Level of inclusion of hydrophobic active ingredients in micelles, determined by reverse-phase HPLC
- experimentalSetup: polymerised micelles of amphiphilic II-4 at 10 mg/ml, stirring at 50° C. for 12 hours; weight ratio medicament/(medicament + transporter) × 100
quantity: Level of inclusion by weight
Form field: result (number plus unit)

Please review the following examples before continuing.
INSERT INTO assay_data (molecule, reading) VALUES
  ('c1cc2ccc3cccc4ccc(c1)c2c34 [Pyrene, pyrene, reference compound]', '34%'),
  ('CC(=O)O[C@H]1C(=O)[C@@]2(C)[C@H]([C@H](OC(=O)c3ccccc3)[C@]3(O)C[C@H](OC(=O)[C@H](O)[C@@H](NC(=O)c4ccccc4)c4ccccc4)C(C)=C1C3(C)C)[C@]1(OC(C)=O)CO[C@@H]1C[C@@H]2O [Paclitaxel, paclitaxel, reference compound]', '31%'),
  ('CN(C)CC[C@H](CSc1ccccc1)Nc1ccc(S(=O)(=O)NC(=O)c2ccc3c(c2)CC[C@@H]2CN(Cc4ccccc4-c4ccc(Cl)cc4)CCN32)cc1[N+](=O)[O-] [S 44563]', '45%');

Attention now shifts to the item below.
Asked: Reported Level of inclusion by weight, molecule CCC1(O)C(=O)Cc2c1cc1n(c2=O)Cc2c-1nc1cc3c(cc1c2C1CCC1)OCO3 (stereo not shown) [S 39625] : ____
Given back: 48%

###

The following compounds are listed with their measured Number of molecules per micelle values.
- measurementNotes: Level of inclusion of hydrophobic active ingredients in micelles, determined by reverse-phase HPLC
- experimentalSetup: polymerised micelles; molar ratio medicament/amphiphilic II-4 × 100 amphiphilics per micelle
Form field (numeric): enter value without unit.

INSERT INTO assay_data (compound, reading) VALUES
  ('CN(C)CC[C@H](CSc1ccccc1)Nc1ccc(S(=O)(=O)NC(=O)c2ccc3c(c2)CC[C@@H]2CN(Cc4ccccc4-c4ccc(Cl)cc4)CCN32)cc1[N+](=O)[O-] [S 44563]', 56),
  ('CC(=O)O[C@H]1C(=O)[C@@]2(C)[C@H]([C@H](OC(=O)c3ccccc3)[C@]3(O)C[C@H](OC(=O)[C@H](O)[C@@H](NC(=O)c4ccccc4)c4ccccc4)C(C)=C1C3(C)C)[C@]1(OC(C)=O)CO[C@@H]1C[C@@H]2O [Paclitaxel, paclitaxel, reference compound]', 33),
  ('c1cc2ccc3cccc4ccc(c1)c2c34 [Pyrene, pyrene, reference compound]', 167);

Attention now shifts to the item below.
Asked: Reported Number of molecules per micelle, compound CCC1(O)C(=O)Cc2c1cc1n(c2=O)Cc2c-1nc1cc3c(cc1c2C1CCC1)OCO3 (stereo not shown) [S 39625] : ____
Given back: 125

###

- measurementNotes: physchem
- experimentalSetup: 50 °C, aqueous with cosolvent or surfactant or cyclodextrin, thermodynamic from solid
quantity: solubility at 12 h (µg/mL)
Your answer is read as µg/mL, so omit the unit and give the number.

Asked: Reported solubility at 12 h, compound CC(=O)O[C@H]1C(=O)[C@@]2(C)[C@H]([C@H](OC(=O)c3ccccc3)[C@]3(O)C[C@H](OC(=O)[C@H](O)[C@@H](NC(=O)c4ccccc4)c4ccccc4)C(C)=C1C3(C)C)[C@]1(OC(C)=O)CO[C@@H]1C[C@@H]2O [Paclitaxel, paclitaxel, reference compound] : ____
Given back: 4550
